# MIC values compiled below
Tested on: Staphylococcus aureus
Test: Antibacterial activity against Staphylococcus aureus ATCC 29213 incubated for 16 hrs by UV/Visible absorbance method
Assay type: functional

| test-smiles | MIC |
| --- | --- |
| CC[C@H](C)[C@H](NC(=O)[C@@H](Cc1ccccc1)NC)C(=O)N[C@@H](CO)C(=O)N[C@H](CCC(N)=O)C(=O)N[C@@H](C(=O)N[C@H](C(=O)N[C@@H](CO)C(=O)N[C@H]1C(=O)N[C@@H](C)C(=O)N[C@@H](CCCNC(=N)N)CC(=O)N[C@@H]([C@@H](C)CC)C(=O)O[C@H]1C)[C@@H](C)CC)[C@@H](C)CC | 8 µg/mL |

Please turn your attention to the following entry.
### Prompt Answer with the recorded MIC of CC[C@H](C)[C@H](NC(=O)[C@@H](Cc1ccccc1)NC)C(=O)N[C@@H](CO)C(=O)N[C@H](CCC(N)=O)C(=O)N[C@@H](C(=O)N[C@H](C(=O)N[C@@H](CO)C(=O)N[C@H]1C(=O)N[C@@H](C)CC(=O)N[C@@H](CCCNC(=N)N)C(=O)N[C@@H]([C@@H](C)CC)CC(=O)O[C@H]1C)[C@@H](C)CC)[C@@H](C)CC only.
### Response 32 µg/mL

---

Test system: Staphylococcus aureus
Experiment: Antibacterial activity against Staphylococcus aureus ATCC 29213 incubated for 16 hrs by UV/Visible absorbance method
Type: functional
Measured MIC by item
// return the numeric value with its unit appended

For orientation, consider the following solved cases.
| compound | MIC |
| --- | --- |
| CC[C@H](C)[C@H](NC(=O)[C@@H](Cc1ccccc1)NC)C(=O)N[C@@H](CO)C(=O)N(C)[C@H](CCC(N)=O)C(=O)N[C@@H](C(=O)N[C@H](C(=O)N[C@@H](CO)C(=O)N[C@H]1C(=O)N[C@@H](C)C(=O)N[C@@H](CCCCN)C(=O)N[C@@H]([C@@H](C)CC)C(=O)O[C@H]1C)[C@@H](C)CC)[C@@H](C)CC | 16 µg/mL |
| CC[C@H](C)[C@H](NC(=O)[C@@H](Cc1ccccc1)NC)C(=O)N[C@@H](CO)C(=O)N[C@H](CCC(N)=O)C(=O)N[C@@H](C(=O)N(C)[C@H](C(=O)N[C@@H](CO)C(=O)N[C@H]1C(=O)N[C@@H](C)CC(=O)N[C@@H](CCCNC(=N)N)C(=O)N[C@@H]([C@@H](C)CC)C(=O)O[C@H]1C)[C@@H](C)CC)[C@@H](C)CC | 32 µg/mL |

Now turn to the next compound.
### Prompt Read off the recorded MIC for CC[C@H](C)[C@H](NC(=O)[C@@H](Cc1ccccc1)NC)C(=O)N[C@@H](CO)C(=O)N[C@H](CCCCN)C(=O)N[C@@H](C(=O)N[C@H](C(=O)N[C@@H](C)C(=O)N[C@H]1C(=O)N[C@@H](C)C(=O)NC(CCCN)C(=O)N[C@@H]([C@@H](C)CC)C(=O)O[C@H]1C)[C@@H](C)CC)[C@@H](C)CC (stereo partly drawn)
### Response 2 µg/mL

---

Tested on: Staphylococcus aureus
Assay: Antibacterial activity against Staphylococcus aureus ATCC 29213 incubated for 16 hrs by UV/Visible absorbance method
Format: functional
measurement-type: MIC

| test-smiles | MIC |
| --- | --- |
| CC[C@H](C)[C@H](NC(=O)[C@@H](Cc1ccccc1)NC)C(=O)N[C@@H](CO)C(=O)N[C@H](CCC(N)=O)C(=O)N[C@@H](C(=O)N[C@H](C(=O)N[C@@H](CO)C(=O)N[C@H]1C(=O)N[C@@H](C)CC(=O)N[C@@H](CCCNC(=N)N)CC(=O)N[C@@H]([C@@H](C)CC)C(=O)O[C@H]1C)[C@@H](C)CC)[C@@H](C)CC | > 32 µg/mL |

### Prompt Give MIC for this entry on Staphylococcus aureus: CC[C@H](C)[C@@H]1NC(=O)[C@H](CCCNC(=N)N)NC(=O)[C@H](C)NC(=O)[C@@H](NC(=O)[C@H](CO)NC(=O)[C@@H](NC(=O)[C@H](NC(=O)[C@@H](CCC(N)=O)NC(=O)[C@H](CO)NC(=O)[C@@H](NC(=O)[C@@H](Cc2ccccc2)NC)[C@@H](C)CC)[C@@H](C)CC)[C@@H](C)CC)[C@H](C)NC1=O
### Response > 32 µg/mL

### Prompt Give Staphylococcus aureus MIC for the following compound: CC[C@H](C)[C@@H]1NC(=O)[C@H](CCCNC(=N)N)NC(=O)[C@H](C)NC(=O)[C@H](NC(=O)[C@H](CO)NC(=O)[C@@H](NC(=O)[C@H](NC(=O)[C@@H](CCC(N)=O)NC(=O)[C@H](CO)NC(=O)[C@@H](NC(=O)[C@@H](Cc2ccccc2)NC)[C@@H](C)CC)[C@@H](C)CC)[C@@H](C)CC)[C@H](C)NC1=O
### Response 1 µg/mL

---

Test system: Staphylococcus aureus
Assay: Antibacterial activity against Staphylococcus aureus ATCC 29213 incubated for 16 hrs by UV/Visible absorbance method
Type: functional
measurement-type: MIC (µg/mL)
Enter your answer as a number in µg/mL; do not include the unit.

Consider the following illustrative entries.
| test-smiles | measurement-target | number |
| --- | --- | --- |
| CC[C@H](C)[C@H](NC(=O)[C@@H](Cc1ccccc1)NC)C(=O)N[C@@H](CO)C(=O)N[C@H](CCC(N)=O)C(=O)N[C@@H](C(=O)N[C@H](C(=O)N[C@@H](CO)C(=O)N[C@H]1C(=O)N[C@@H](C)C(=O)N[C@@H](CCCNC(=N)N)C(=O)N[C@@H]([C@@H](C)CC)CC(=O)O[C@H]1C)[C@@H](C)CC)[C@@H](C)CC | Staphylococcus aureus | 4 |
| CC[C@H](C)[C@H](NC(=O)[C@@H](Cc1ccccc1)NC)C(=O)N[C@@H](CO)C(=O)N[C@H](CCC(N)=O)C(=O)N[C@@H](C(=O)N[C@H](C(=O)N[C@@H](CO)C(=O)N[C@H]1C(=O)N[C@@H](C)C(=O)N[C@@H](CCCNC(=N)N)CC(=O)N[C@@H]([C@@H](C)CC)CC(=O)O[C@H]1C)[C@@H](C)CC)[C@@H](C)CC | Staphylococcus aureus | 4 |
| CC[C@H](C)[C@H](NC(=O)[C@@H](Cc1ccccc1)NC)C(=O)N[C@@H](CO)C(=O)N[C@H](C)C(=O)N[C@@H](C(=O)N[C@H](C(=O)N[C@@H](C)C(=O)N[C@H]1C(=O)N[C@@H](C)C(=O)N[C@@H](CCCCN)C(=O)N[C@@H]([C@@H](C)CC)C(=O)O[C@H]1C)[C@@H](C)CC)[C@@H](C)CC | Staphylococcus aureus | 1 |
| CC[C@H](C)[C@H](NC(=O)[C@@H](Cc1ccccc1)NC)C(=O)N[C@@H](CO)C(=O)N[C@H](CCC(N)=O)C(=O)N[C@@H](C(=O)N[C@H](C(=O)N[C@@H](CO)C(=O)N[C@H]1C(=O)N[C@@H](C)CC(=O)N[C@@H](CCCNC(=N)N)CC(=O)N[C@@H]([C@@H](C)CC)CC(=O)O[C@H]1C)[C@@H](C)CC)[C@@H](C)CC | Staphylococcus aureus | 16 |

Shifting focus to the compound that follows.
### Prompt Tell me MIC of CC[C@H](C)[C@H](NC(=O)[C@@H](Cc1ccccc1)NC)C(=O)N[C@@H](CO)C(=O)N[C@H](CCC(N)=O)C(=O)N[C@@H](C(=O)N[C@H](C(=O)N[C@@H](CO)C(=O)N[C@H]1C(=O)N[C@@H](C)C(=O)N[C@@H](C)C(=O)N[C@@H]([C@@H](C)CC)C(=O)O[C@H]1C)[C@@H](C)CC)[C@@H](C)CC when tested on Staphylococcus aureus.
### Response 1

---

System: Staphylococcus aureus
Experiment: Antibacterial activity against Staphylococcus aureus ATCC 29213 incubated for 16 hrs by UV/Visible absorbance method
Format: functional
Where a SMILES comes first, the peptide text is derived from it. Bridges are numbered along the chain shown (N, C = ends). [ ]: non-standard residue; d: D form. d(aIle) = CC[C@H](C)[C@@H](N)C(=O)O; dNMeF = CN[C@H](Cc1ccccc1)C(=O)O
measurement-type: MIC (µg/mL)
The reply should be a number in µg/mL, with the unit left off.

### Prompt Fill: MIC (Staphylococcus aureus) for this compound CC[C@H](C)[C@H](NC(=O)[C@@H](Cc1ccccc1)NC)C(=O)N[C@@H](CO)C(=O)N[C@H](CCC(N)=O)C(=O)N[C@@H](C(=O)N[C@H](C(=O)N[C@@H](CO)C(=O)N[C@H]1C(=O)N[C@@H](C)C(=O)N[C@@H](CCCCN)C(=O)N[C@@H](C)C(=O)O[C@H]1C)[C@@H](C)CC)[C@@H](C)CC (H-[dNMeF]IS[dQ][d(aIle)]IS[dT]AKA; ester 8-C)
### Response 4
